Measured LogR (µOR) β-arr2 of individual entries
- ASSAYED_SYSTEM: UniProt P35372
- ASSAY_DETAILS: cell-based
- Format: cell-based
Form: value (number only, do not type unit).

# SMI, ASSAYED_SYSTEM, LogR (µOR) β-arr2
data = [
    ("Cc1cccc(C[C@H](NC(=O)CNC(=O)CNC(=O)[C@@H](N)Cc2ccc(O)cc2)C(=O)N[C@@H](CC(C)C)C(=O)O)c1", "UniProt P35372", 6.1),
    ("CC(C)C[C@H](NC(=O)[C@H](Cc1cccc(I)c1)NC(=O)CNC(=O)CNC(=O)[C@@H](N)Cc1ccc(O)cc1)C(=O)O", "UniProt P35372", 6.6),
]

Please look at the following compound next.
Problem: What does the record list as LogR (µOR) β-arr2 for `CC(C)C[C@H](NC(=O)[C@H](Cc1cccc(F)c1)NC(=O)CNC(=O)CNC(=O)[C@@H](N)Cc1ccc(O)cc1)C(=O)O` ?
Solution: 5.8

* * *

- ASSAYED_SYSTEM: HA-mouse µOR (Mus musculus, UniProt P42866)
- Construct: HA; expressed in transfected cells; host or cells: HEK 293
- Sequence (P42866 whole entry): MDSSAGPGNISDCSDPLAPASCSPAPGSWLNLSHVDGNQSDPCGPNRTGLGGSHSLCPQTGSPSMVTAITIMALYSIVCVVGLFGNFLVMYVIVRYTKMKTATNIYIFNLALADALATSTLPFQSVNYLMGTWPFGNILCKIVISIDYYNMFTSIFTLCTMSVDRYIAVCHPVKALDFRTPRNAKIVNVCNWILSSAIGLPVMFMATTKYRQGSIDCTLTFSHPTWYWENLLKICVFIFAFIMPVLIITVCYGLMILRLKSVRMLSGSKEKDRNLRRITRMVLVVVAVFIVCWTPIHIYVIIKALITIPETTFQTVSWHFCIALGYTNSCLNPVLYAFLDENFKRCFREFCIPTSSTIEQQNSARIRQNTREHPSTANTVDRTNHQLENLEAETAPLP
- ASSAY_DETAILS: cAMP GloSensor inhibition assay in HEK 293 cells
- Format: cell-based
- STATED_CONDITIONS: relative to DAMGO = 100
MEASUREMENT_TYPE: cAMP µOR Efficacy (%+SD) (%)
State the answer as a number, implicitly in %.

# SMI, OBSERVED_MEASUREMENT
records = [
    ("CC(C)C[C@H](NC(=O)[C@H](Cc1cccc(Cl)c1)NC(=O)CNC(=O)CNC(=O)[C@@H](N)Cc1ccc(O)cc1)C(=O)O", 99),
]

Problem: What does the record list as cAMP µOR Efficacy (%+SD) for `CC(C)C[C@H](NC(=O)[C@H](Cc1cccc(Br)c1)NC(=O)CNC(=O)CNC(=O)[C@@H](N)Cc1ccc(O)cc1)C(=O)O` ?
Solution: 104

* * *

- ASSAYED_SYSTEM: FLAG-mouse δOR (Mus musculus, UniProt P32300)
- Construct: FLAG; expressed in transfected cells; host or cells: HEK 293
- Sequence (P32300 whole entry): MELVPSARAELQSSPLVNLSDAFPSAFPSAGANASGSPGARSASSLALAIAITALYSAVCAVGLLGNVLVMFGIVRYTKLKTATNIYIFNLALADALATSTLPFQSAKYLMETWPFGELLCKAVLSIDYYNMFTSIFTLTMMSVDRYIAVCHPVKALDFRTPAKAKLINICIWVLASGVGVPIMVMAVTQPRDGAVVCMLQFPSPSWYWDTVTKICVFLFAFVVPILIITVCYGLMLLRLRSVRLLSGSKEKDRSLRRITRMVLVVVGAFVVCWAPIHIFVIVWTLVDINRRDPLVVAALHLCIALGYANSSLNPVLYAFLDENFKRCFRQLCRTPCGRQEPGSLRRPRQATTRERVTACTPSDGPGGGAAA
- ASSAY_DETAILS: cAMP GloSensor inhibition assay in HEK 293 cells
- Assay type: cell-based
- STATED_CONDITIONS: operational model Log R (τ/KA)
MEASUREMENT_TYPE: LogR (δOR) cAMP
Form: value (number only, do not type unit).

Please review the entries below; each comes with its answer.
# COMPOUND, ASSAYED_SYSTEM, MEASUREMENT_TYPE, OBSERVED_MEASUREMENT
data = [
    ("CC(C)C[C@H](NC(=O)[C@H](Cc1cccc(C(F)(F)F)c1)NC(=O)CNC(=O)CNC(=O)[C@@H](N)Cc1ccc(O)cc1)C(=O)O [Compound 1g]", "FLAG-mouse δOR (Mus musculus, UniProt P32300)", "LogR (δOR) cAMP", 9.7),
    ("CC(C)C[C@H](NC(=O)[C@H](Cc1cccc([N+](=O)[O-])c1)NC(=O)CNC(=O)CNC(=O)[C@@H](N)Cc1ccc(O)cc1)C(=O)O [Compound 1i]", "FLAG-mouse δOR (Mus musculus, UniProt P32300)", "LogR (δOR) cAMP", 9.0),
]

Problem: What does the record list as LogR (δOR) cAMP for COc1cccc(C[C@H](NC(=O)CNC(=O)CNC(=O)[C@@H](N)Cc2ccc(O)cc2)C(=O)N[C@@H](CC(C)C)C(=O)O)c1 [Compound 1f] ?
Solution: 9.8

* * *

- ASSAYED_SYSTEM: µOR (Homo sapiens, UniProt P35372)
- Sequence (P35372 whole entry): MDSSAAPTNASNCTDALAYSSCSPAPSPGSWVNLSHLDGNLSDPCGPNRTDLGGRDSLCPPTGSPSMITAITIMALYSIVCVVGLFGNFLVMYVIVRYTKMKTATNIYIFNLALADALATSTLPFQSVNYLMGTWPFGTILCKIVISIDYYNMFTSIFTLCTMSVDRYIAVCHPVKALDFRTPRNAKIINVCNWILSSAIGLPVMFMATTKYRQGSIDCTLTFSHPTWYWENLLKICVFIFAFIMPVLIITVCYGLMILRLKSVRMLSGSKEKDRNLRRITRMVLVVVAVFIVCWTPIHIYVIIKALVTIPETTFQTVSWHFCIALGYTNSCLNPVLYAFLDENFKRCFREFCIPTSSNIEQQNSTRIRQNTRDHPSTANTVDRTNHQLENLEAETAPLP
- ASSAY_DETAILS: cell-based
- Format: cell-based
MEASUREMENT_TYPE: LogR (µOR) β-arr2
Form: value (number only, do not type unit).

Please review the entries below; each comes with its answer.
# COMPOUND, OBSERVED_MEASUREMENT
rows = [
    ("CC(C)C[C@H](NC(=O)[C@H](Cc1cccc(C(F)(F)F)c1)NC(=O)CNC(=O)CNC(=O)[C@@H](N)Cc1ccc(O)cc1)C(=O)O [Compound 1g]", 6.6),
    ("COc1cccc(C[C@H](NC(=O)CNC(=O)CNC(=O)[C@@H](N)Cc2ccc(O)cc2)C(=O)N[C@@H](CC(C)C)C(=O)O)c1 [Compound 1f]", 5.6),
    ("CC(C)C[C@H](NC(=O)[C@H](Cc1cccc(Cl)c1)NC(=O)CNC(=O)CNC(=O)[C@@H](N)Cc1ccc(O)cc1)C(=O)O [Compound 1b, H2N-Tyr-Gly-Gly-(meta-Cl)Phe-Leu-OH]", 7.2),
    ("CC(C)C[C@H](NC(=O)[C@H](Cc1cccc(Br)c1)NC(=O)CNC(=O)CNC(=O)[C@@H](N)Cc1ccc(O)cc1)C(=O)O [Compound 1c, H2N-Tyr-Gly-Gly-(meta-Br)Phe-Leu-OH]", 7.2),
    ("CC(C)C[C@H](NC(=O)[C@H](Cc1cccc(C#N)c1)NC(=O)CNC(=O)CNC(=O)[C@@H](N)Cc1ccc(O)cc1)C(=O)O [Compound 1h]", 5.9),
]

Problem: What does the record list as LogR (µOR) β-arr2 for CC(C)C[C@H](NC(=O)[C@H](Cc1cccc([N+](=O)[O-])c1)NC(=O)CNC(=O)CNC(=O)[C@@H](N)Cc1ccc(O)cc1)C(=O)O [Compound 1i] ?
Solution: 5.3

* * *

- ASSAY_DETAILS: Rat plasma stability
- STATED_CONDITIONS: rat, plasma
- Method: Peptides were synthesized using an Aapptec Focus XC automated peptide synthesizer coupled with a heating system using a solid phase peptide synthesis protocol using Fmoc chemistry. Preparative RP-HPLC was performed using an appropriate column and solvent system (described below) and final purity of peptides was determined by UV area % from UPLC analysis. Peptides were purified by Teledyne ISCO EZ Prep system on RediSep® C18 Prep column (30 × 250 mm, 100 Å). […]
Square brackets hold non-standard residues; d marks the D form. Peptide text beside a SMILES is read from it. 2Pal = N[C@@H](Cc1ccccn1)C(=O)O; 3Pal = N[C@@H](Cc1cccnc1)C(=O)O; 4Pal = N[C@@H](Cc1ccncc1)C(=O)O
MEASUREMENT_TYPE: half-life
Note to self: number, then unit, no commentary.

Please review the entries below; each comes with its answer.
# COMPOUND, MEASUREMENT_TYPE, OBSERVED_MEASUREMENT
data = [
    ("CC(C)C[C@H](NC(=O)[C@H](Cc1cccc(I)c1)NC(=O)CNC(=O)CNC(=O)[C@@H](N)Cc1ccc(O)cc1)C(=O)O", "half-life", "13.2 min"),
    ("CC(C)C[C@H](NC(=O)[C@H](Cc1cccc([N+](=O)[O-])c1)NC(=O)CNC(=O)CNC(=O)[C@@H](N)Cc1ccc(O)cc1)C(=O)O", "half-life", "28.8 min"),
    ("CC(C)C[C@H](NC(=O)[C@H](Cc1cccc(C#N)c1)NC(=O)CNC(=O)CNC(=O)[C@@H](N)Cc1ccc(O)cc1)C(=O)O", "half-life", "33 min"),
    ("CC(C)C[C@H](NC(=O)[C@H](Cc1cccc(Br)c1)NC(=O)CNC(=O)CNC(=O)[C@@H](N)Cc1ccc(O)cc1)C(=O)O", "half-life", "21.5 min"),
    ("CC(C)C[C@H](NC(=O)[C@H](Cc1cccnc1)NC(=O)CNC(=O)CNC(=O)[C@@H](N)Cc1ccc(O)cc1)C(=O)O [Compound 1k] (H-YGG[3Pal]L-OH; N-terminus and C-terminus assumed)", "half-life", "54 min"),
    ("CC(C)C[C@H](NC(=O)[C@H](Cc1cccc(Cl)c1)NC(=O)CNC(=O)CNC(=O)[C@@H](N)Cc1ccc(O)cc1)C(=O)O", "half-life", "37.8 min"),
    ("CC(C)C[C@H](NC(=O)[C@H](Cc1ccccn1)NC(=O)CNC(=O)CNC(=O)[C@@H](N)Cc1ccc(O)cc1)C(=O)O [Compound 1j] (H-YGG[2Pal]L-OH; N-terminus and C-terminus assumed)", "half-life", "26.8 min"),
    ("CC(C)C[C@H](NC(=O)[C@H](Cc1ccncc1)NC(=O)CNC(=O)CNC(=O)[C@@H](N)Cc1ccc(O)cc1)C(=O)O [Compound 1l] (H-YGG[4Pal]L-OH; N-terminus and C-terminus assumed)", "half-life", "78.1 min"),
]

Problem: What does the record list as half-life for `COc1cccc(C[C@H](NC(=O)CNC(=O)CNC(=O)[C@@H](N)Cc2ccc(O)cc2)C(=O)N[C@@H](CC(C)C)C(=O)O)c1` ?
Solution: 46.1 min

Problem: Lookup `Cc1cccc(C[C@H](NC(=O)CNC(=O)CNC(=O)[C@@H](N)Cc2ccc(O)cc2)C(=O)N[C@@H](CC(C)C)C(=O)O)c1`
Solution: 39.5 min

Problem: Lookup `CC(C)C[C@H](NC(=O)[C@H](Cc1cccc(C(F)(F)F)c1)NC(=O)CNC(=O)CNC(=O)[C@@H](N)Cc1ccc(O)cc1)C(=O)O`
Solution: 44.5 min

Problem: Lookup `CC(C)C[C@H](NC(=O)[C@H](Cc1cccc(F)c1)NC(=O)CNC(=O)CNC(=O)[C@@H](N)Cc1ccc(O)cc1)C(=O)O`
Solution: 82.3 min
